# experimental target: TDO (Homo sapiens, UniProt P48775)
# Sequence (P48775 whole entry, species assumed): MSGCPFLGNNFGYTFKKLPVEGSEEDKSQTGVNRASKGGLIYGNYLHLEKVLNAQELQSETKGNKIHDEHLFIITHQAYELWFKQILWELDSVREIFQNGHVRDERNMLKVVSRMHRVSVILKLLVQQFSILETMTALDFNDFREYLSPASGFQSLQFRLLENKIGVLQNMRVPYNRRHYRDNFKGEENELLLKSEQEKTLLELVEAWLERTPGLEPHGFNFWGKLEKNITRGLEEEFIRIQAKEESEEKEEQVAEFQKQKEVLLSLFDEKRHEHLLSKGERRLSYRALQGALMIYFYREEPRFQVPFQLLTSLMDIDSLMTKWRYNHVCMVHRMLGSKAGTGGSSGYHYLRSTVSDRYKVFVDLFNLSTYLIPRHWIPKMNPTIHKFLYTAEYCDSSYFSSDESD
measured metric: pIC50
One number for each entry, as −log10 of the molar value.

INPUT: I have this compound here, `[2H]C1([2H])CC(Nc2nonc2C(=NO)Nc2ccc(F)c(Br)c2)CC([2H])([2H])S1(=O)=O` , and I need its recorded pIC50.
OUTPUT: 5.30

====

# experimental target: IDO-1 (Homo sapiens, UniProt P14902)
# Sequence (P14902 whole entry, species assumed): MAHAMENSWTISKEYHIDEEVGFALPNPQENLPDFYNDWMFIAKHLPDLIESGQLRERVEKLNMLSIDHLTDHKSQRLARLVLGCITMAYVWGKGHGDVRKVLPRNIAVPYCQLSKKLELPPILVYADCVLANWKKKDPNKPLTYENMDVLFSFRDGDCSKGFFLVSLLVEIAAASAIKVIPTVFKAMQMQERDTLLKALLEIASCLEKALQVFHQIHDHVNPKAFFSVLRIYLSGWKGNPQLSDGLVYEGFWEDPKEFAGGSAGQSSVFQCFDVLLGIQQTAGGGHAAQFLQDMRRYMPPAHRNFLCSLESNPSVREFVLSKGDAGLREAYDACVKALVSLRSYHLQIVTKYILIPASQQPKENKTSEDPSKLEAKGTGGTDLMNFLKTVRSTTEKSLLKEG
measured metric: pIC50
One number for each entry, as −log10 of the molar value.

INPUT: Find pIC50 (IDO-1 (Homo sapiens, UniProt P14902)) for the entry [2H]C1([2H])CC(Nc2nonc2C(=NO)Nc2ccc(F)c(Br)c2)CC([2H])([2H])S1(=O)=O [Compound 1]
OUTPUT: 7.07
